tested on: VDR:RXRa (NR concentration 270 nM, RXRa partner concentration 90 nM); assay: PBM binding z-score (relative to random genomic background probes); higher = stronger binding; sequences stand for … in GC…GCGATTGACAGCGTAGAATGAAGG
Quick rule: PBM binding z-score of at least 2 means Yes, below that means No.

[[record]]
sequence_input = "TCTAGCAGGCCGGAGGGTCACTCAAGAGGTACGG"
answer_label = "No"


Task: Identify whether the reported PBM binding z-score of the following sequence is 2 or greater: ACAGACAGATGAGTGAAGGTAACTCAGCTGGACG
Output: No

Task: Identify whether the reported PBM binding z-score of the following sequence is 2 or greater: CCAGACAGGTGAGAAGCTAACTCAGCCTCGATTA
Output: No

====

test system: PPARg:RXRa 30nM:10nM, anti-RXR (NR concentration 30 nM, RXRa partner concentration 10 nM); test: PBM binding z-score (relative to random genomic background probes); higher = stronger binding; sequences stand for … in GC…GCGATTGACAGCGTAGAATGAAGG
Reported PBM binding z-score values are given for each entry in this list.
API note: the answer field is a bare number with no unit suffix.

Examples with answers:
[[record]]
sequence_input = "CCGAGTAGGTTATGGGGGATTCAGGCAACGGTGA"
value_reported = 1.98

[[record]]
sequence_input = "ACTGTTAGTTGACTTAGGGCAACCGATACGACGC"
value_reported = 0.105

[[record]]
sequence_input = "CGAACTAGGTCAGAAGAGGACAGTGAAGGATGAT"
value_reported = 2.29

[[record]]
sequence_input = "GAAACAGGGTCAGCTAGAGGCCAGAGTATGGAAA"
value_reported = 0.859

[[record]]
sequence_input = "TGAATTAGGTTATAAGATCAGGGAACGTTGCAAA"
value_reported = 1.96

[[record]]
sequence_input = "ACTATTAGTTGAGACGAGGGCAACCCATAGGTTG"
value_reported = 0.398


Task: Fill in PBM binding z-score for TCTATTAGTTGAAAGGCAACCGACGAGTCCGTTT tested with PPARg:RXRa 30nM:10nM, anti-RXR (NR concentration 30 nM, RXRa partner concentration 10 nM).
Output: 4.06

Task: Fill in PBM binding z-score for TCGAGTAGGTTACCTATGGGGCATTCAGCTTTCT tested with PPARg:RXRa 30nM:10nM, anti-RXR (NR concentration 30 nM, RXRa partner concentration 10 nM).
Output: 1.17

Task: Fill in PBM binding z-score for ACTAGTTGGTCAGCTGAGGACACACACAATTCGG tested with PPARg:RXRa 30nM:10nM, anti-RXR (NR concentration 30 nM, RXRa partner concentration 10 nM).
Output: -0.228

Task: Fill in PBM binding z-score for ATCTCTAGGTAAAGATAGTTCAGTTAATGCAAAT tested with PPARg:RXRa 30nM:10nM, anti-RXR (NR concentration 30 nM, RXRa partner concentration 10 nM).
Output: 0.448

====

system: PPARg:RXRa DBDmut IVT, anti-RXR (DBD mutation: RXRa K156A/R161A, NR concentration 270 nM, RXRa partner concentration 90 nM); assay: PBM binding z-score (relative to random genomic background probes); higher = stronger binding; sequences stand for … in GC…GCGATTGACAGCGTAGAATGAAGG
assay_metric: PBM binding z-score
API note: the answer field is a bare number with no unit suffix.

Examples with answers:
[[record]]
sequence_input = "CGTCCAAGGTGAAAGGTCAGTGAAGAGATGACGG"
value_reported = 2.98

[[record]]
sequence_input = "CGTCCAAGGTCAGAGAGTTCAGTGAATGCCGAGT"
value_reported = 2.97

[[record]]
sequence_input = "CAAACTAGGTCACTGAGGTCAAAGTCCGTGCGTA"
value_reported = 8.41

[[record]]
sequence_input = "GCTATTAGTTGAAAGGGCAAACGAATGATTCTCG"
value_reported = 0.582

[[record]]
sequence_input = "CCTGCTAGGTCATGGTTAGCTAATCTACAGTATG"
value_reported = 4.51

[[record]]
sequence_input = "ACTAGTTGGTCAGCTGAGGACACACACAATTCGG"
value_reported = 0.766

[[record]]
sequence_input = "CCTGTTAGGTCATGGTCAGCTAATCTACAGTATG"
value_reported = 3.41

[[record]]
sequence_input = "CCTACTGGGCCATTCAGAGGTCATTGGTCATATG"
value_reported = 3.85

[[record]]
sequence_input = "CGTCCAAGGTCAGAGAGGTCCGTGAATGCCGAGT"
value_reported = 2.12

[[record]]
sequence_input = "ATACCAAGGCGATCGTGAGGTCGTTGATACTAAC"
value_reported = -0.138


Task: Recall and state the measured PBM binding z-score for CAGCCTAGGTCAGGGCCTGTATAGGAGGAACGTT .
Output: 1.45

Task: Recall and state the measured PBM binding z-score for CAAACTAGATCAAGAGGTCAAAGTCCGCTTCCCG .
Output: 2.78

Task: Recall and state the measured PBM binding z-score for GCATATAGGTAATACAACGTGAAAGTCCGATTGT .
Output: 4.04

====

system: PXR:RXRa (NR concentration 270 nM, RXRa partner concentration 90 nM); assay: PBM binding z-score (relative to random genomic background probes); higher = stronger binding; sequences stand for … in GC…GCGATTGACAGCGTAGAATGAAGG
assay_metric: PBM binding z-score
API note: the answer field is a bare number with no unit suffix.

Examples with answers:
[[record]]
sequence_input = "TCTTGTAGATCAAACGTTAAGAAAGCCGAAGCCT"
tested_target = "PXR:RXRa (NR concentration 270 nM, RXRa partner concentration 90 nM)"
assay_metric = "PBM binding z-score"
value_reported = 0.00909

[[record]]
sequence_input = "GCTGCTAGGTCACCTGATGGTCAGCTAAAGCTCG"
tested_target = "PXR:RXRa (NR concentration 270 nM, RXRa partner concentration 90 nM)"
assay_metric = "PBM binding z-score"
value_reported = 1.2

[[record]]
sequence_input = "ATACCAAGCTGATCGTGAGGTCGTTGATACTAAC"
tested_target = "PXR:RXRa (NR concentration 270 nM, RXRa partner concentration 90 nM)"
assay_metric = "PBM binding z-score"
value_reported = 1.49

[[record]]
sequence_input = "CTCGAAAGGTCGTGCTCAGGTGAGTGTACCAAAC"
tested_target = "PXR:RXRa (NR concentration 270 nM, RXRa partner concentration 90 nM)"
assay_metric = "PBM binding z-score"
value_reported = 3.52


Task: Recall and state the measured PBM binding z-score for ATACCAAGGTGATCGTGATGTCGTTGATACTAAC .
Output: -0.038

Task: Recall and state the measured PBM binding z-score for ATCTCTAGGTAACCAAGTTGAGTGAATGCCGAAC .
Output: -0.00792

Task: Recall and state the measured PBM binding z-score for ACTATTAGTTGAGACGAGGGAAACCGATAGGTTG .
Output: -0.464

Task: Recall and state the measured PBM binding z-score for TCATATAGGTAAATGCTAGGTGGAAGTCCGATCT .
Output: 0.234

Task: Recall and state the measured PBM binding z-score for TCTGCTTGGTCAGTTGGTCAGCTAACGAGCTGCC .
Output: -0.535

Task: Recall and state the measured PBM binding z-score for ACTATTAGTTAACTTAGGGCAACCGATACGACGC .
Output: 0.418

====

test system: PPARg homodimer (NR concentration 180 nM); assay: PBM binding z-score (relative to random genomic background probes); higher = stronger binding; sequences stand for … in GC…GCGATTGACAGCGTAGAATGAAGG
Reported PBM binding z-score values are given for each entry in this list.

Examples with answers:
[[record]]
sequence_input = "GCTAGTTGGTCAGTAAAAGGTCACAAACCGGTCG"
assay_metric = "PBM binding z-score"
value_reported = 2.9

[[record]]
sequence_input = "CCGACTGGCGCAAGGTTACCATAACGCACAGCCA"
assay_metric = "PBM binding z-score"
value_reported = 0.0939

[[record]]
sequence_input = "ATCTCTAGGTAAAAGTCCAGTGAATCCCGAGGAT"
assay_metric = "PBM binding z-score"
value_reported = 0.148

[[record]]
sequence_input = "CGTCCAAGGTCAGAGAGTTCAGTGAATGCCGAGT"
assay_metric = "PBM binding z-score"
value_reported = 2.85

[[record]]
sequence_input = "CCTACTGGGCCACGAAAGGTTATTGATTCAGTGA"
assay_metric = "PBM binding z-score"
value_reported = 0.506

[[record]]
sequence_input = "CAAACTAGATCACGAAAGGTCAAAGTCGAATGAC"
assay_metric = "PBM binding z-score"
value_reported = 4.54

[[record]]
sequence_input = "CCTCGGAGAACAACAGGAGGTCAGAGCTGCCAGA"
assay_metric = "PBM binding z-score"
value_reported = 1.77

[[record]]
sequence_input = "CAAACTCGGTCAAAGGTCAAAGTCGAGCCAACCA"
assay_metric = "PBM binding z-score"
value_reported = 6.43

[[record]]
sequence_input = "TCATATATGTAAACAGGTGAAAGTCCGTAAGTTA"
assay_metric = "PBM binding z-score"
value_reported = 0.985

[[record]]
sequence_input = "TAGCCTAGGTCAGATCGGGTCAGTATACGCTATA"
assay_metric = "PBM binding z-score"
value_reported = 0.633


Here is the next item to consider.
Task: Recall and state the measured PBM binding z-score for ATACCAAGGTGATCGCGAGGTCGTTGATACTAAC .
Output: 0.588
